Species: Rattus norvegicus
Test: […] activity in rat aorta precontracted with 30 mM KCl
Assay type: functional
Listed here: items and their measured pEC50.
Note on units: pEC50 is unitless, being -log10 of a concentration expressed in mol/L.

Worked cases, answers included:
> print(dat)
                                        smi  reported.endpoint  readout.value
1  CNC(=O)C1=CC(C)(C)Oc2ccc([N+](=O)[O-])cc21              pEC50           7.97
2  CN(C)/C(=N\C#N)C1=CC(C)(C)Oc2ccc(C#N)cc21              pEC50           5.30
3  CN(C)/C(=N\C#N)C1=CC(C)(C)Oc2ccc(S(=O)(=O)c3ccccc3)cc21              pEC50           5.48
4  CN(C)/C(=C\[N+](=O)[O-])C1=CC(C)(C)Oc2ccc([N+](=O)[O-])cc21              pEC50           5.19
5  CN(C)C(=O)C1=CC(C)(C)Oc2ccc([N+](=O)[O-])cc21              pEC50           6.89

Recorded pEC50 of CN(C)/C(=N\C#N)C1=CC(C)(C)Oc2ccc(C(F)(F)F)cc21 , please. 4.90

Also CN(C)C(=S)C1=CC(C)(C)Oc2ccc([N+](=O)[O-])cc21 , if possible. 6.02
